compound	melting point
CCC1SC(=O)N(Cc2ccc(C(=O)O)cc2)N=C1c1ccc(O)c(O)c1 (stereo unspecified)	106 °C
O=C(O)CC1(c2cccc(F)c2)NC(=O)NC1=O (stereo unspecified)	206 to 208 °C
O=C(c1ccc(Cl)cc1)c1cc(-c2ccccc2)c(N2CCOCC2)s1	187 to 188 °C
CNC(=O)[C@@H](NC(=O)[C@@H](CC(=O)OCc1ccccc1)n1ccc(-c2ccc(-c3ccc(C#N)cc3)cc2)c1)C(C)(C)C	120 °C
O=C(O)C1C=CCn2c(=O)n(CO)c(=O)n21 (stereo unspecified)	175 to 178 °C
COC(=O)c1cccc(OC)c1OCCC#N	74 to 75 °C
O=[N+]([O-])c1cc(Cl)c(OCC(F)(F)F)cc1F	54 to 55 °C
O=S(Cc1ccccc1)C1CCN(Cc2ccccc2)CC1 (racemic)	123 °C
CC(C)N1CC([N+](=O)[O-])=C(NCC(=O)O)C1=O	180 to 185 °C
CCC(CC)c1ccc(Cl)c2nc3n(c12)CCCCN3c1ccc(C(=O)NC)cc1C	127 to 128 °C
CN1CCCC1=NC(=O)Nc1ccc(Cl)c(Cl)c1	160 °C
NC(=O)C1CCN(c2ccncc2Cl)CC1	210 to 212 °C
N#Cc1ccc(-c2ccccc2)c(NC(=O)Nc2cccnc2)c1	180 to 182 °C
CC(C)(C)c1cc(CO)nn1-c1ccc(S(C)(=O)=O)cc1	143 to 146 °C
CS(=O)(=O)c1ccc(CC(=O)c2c(O)c3cccnc3n(-c3ccccc3)c2=O)cc1	260 to 262 °C
N#Cc1ccc(-c2ccc(OCCC(=O)NO)cc2)cc1	114 to 118 °C
O=c1nc(-c2c(F)cccc2F)oc(=O)n1-c1ccc(Cl)c(Cl)c1	196 to 197 °C
OC1CCCCc2cc(OCC3CCCCC3)ccc21 (stereo unspecified)	102 to 103 °C
O=C(Nc1cccc2c1C1CCCCN1C2=O)Nc1nc(Cl)c(Cl)c(Cl)c1Cl (stereo unspecified)	246 °C
CC(C)(NC(=O)OCc1ccccc1)C(=O)NC(c1ccccc1)c1ccccc1	157 to 159 °C
O=C(O)COc1cc(O)c2c(c1)NC1(CCCCC1)CC2=O	177 to 178 °C

###

reportedProperty: melting point

compound	reportedProperty	obsValue
Nc1cc(=O)n(Cc2ccc(Br)c(Br)c2)[nH]1	melting point	182 °C
Cn1ncnc1COc1nn2c(-c3ccccc3F)nncc2c1-c1c(F)cccc1F	melting point	196 °C
Cc1ccc(-c2ccc(C(=O)Nc3ccc4cc(CN5CCCC5)cnc4c3F)c(F)c2)cc1	melting point	173 °C
CSC[C@@H](NC(=O)OCc1ccccc1)[C@@H]1COC(C)(C)O1	melting point	70 to 71 °C
O=C(NOC(=O)c1ccccc1)OCC1c2ccccc2-c2ccccc21	melting point	150 °C
CSc1c(F)cc(CC(=O)c2ccccc2)cc1F	melting point	71.8 to 71.9 °C
CC(=O)c1cc(-c2ccc(C)cc2)c(OCc2ccccc2)c(C(C)(C)C)c1	melting point	104 °C
CCc1cc(C(=O)c2ccccc2Cl)c(NC)s1	melting point	100 to 102 °C
O=C(NC(=Cc1ccccc1)c1cccs1)C(F)(F)F	melting point	158 °C
CCc1c(O)cc(O)c(C(=O)c2ccc(OC)cc2)c1CC(=O)N(CCO)CCN1CCOCC1	melting point	235 to 237 °C
O=C(Nc1ccc(C(=O)Nc2ccc(Cl)cc2)c(O)c1)c1ccc(-c2nc3cc(Cl)c(Cl)cc3[nH]2)cc1	melting point	> 220 °C
COc1nc(C(=O)O)ccc1C#N	melting point	235 to 237 °C
CCc1c(Br)c2ccccn2c1C(=O)c1ccc(O)cc1	melting point	160 to 162 °C
CC(=O)NC[C@H]1CN(c2ccc(N3CCC(n4nnc(N5CCN(C#N)CC5)n4)CC3)c(F)c2)C(=O)O1	melting point	208 to 210 °C
CS(=O)c1ccc(C(=O)c2cnoc2C2CC2)c(Cl)c1 (stereo unspecified)	melting point	117 °C
CCCCn1nc(C(C)C)c(C(=O)O)c1Cc1ccc(-c2ccccc2-c2nnn[nH]2)cc1	melting point	103 to 108 °C
O=C(O)C(=O)Nc1ccc2c(=O)c3c(oc2c1)C(=Cc1ccc2c(c1)OCO2)CC3	melting point	300 to 305 °C
CC(=O)NCCCC(=O)N1CCCC(=O)c2ccc(Cl)cc2CCC1=O	melting point	135 to 136 °C
Cc1cc2occ(C=O)c(=O)c2cc1C	melting point	154 to 156 °C
Clc1ccc2ncc(Br)n2n1	melting point	132 to 137 °C
O=C1Cc2ccccc2N1Nc1ccncc1	melting point	221 to 224 °C

###

List of melting point values.

compound	melting point
O=[N+]([O-])c1ccccc1Oc1cc(Cl)cc(Cl)c1	78 to 80 °C
O=C(c1cc(Br)c(OCP(=O)(O)O)c(Br)c1)c1c(Cc2ccccc2)sc2ccccc12	210 to 212 °C
Cc1nc(O)c2c(n1)N(c1c(C)cc(Br)cc1C)C(=O)C2C (stereo not given)	271 to 273 °C
Cc1ccc([N+](=O)[O-])c2c1CCC(C)O2 (stereo not given)	83 to 85 °C
CC(C)n1nc(-c2c(NCc3ccccn3)nc(N)nc2-c2ccccc2)ccc1=O	196 to 198 °C
COc1ccc(C(=O)C=Cc2c(O)cc(OCCBr)cc2O)cc1O	158 to 162 °C
CN(C)c1ccc(CSC2=NC(C)(C)C(SCc3ccc(N(C)C)cc3)=N2)cc1	91 to 92 °C
CCC(C(C)=CC(CNC(=O)Cc1cccnc1)=NO)[N+](=O)[O-] (stereo not given)	140 to 141 °C
C=C(C)C(=O)NCCCCCCCCCCCC(=O)O	70.8 to 72.4 °C
CCCCCCCCCCC(O)CNCCNCC(O)CCCCCCCCCC (stereo not given)	137 to 142 °C
CCCC1(CC(=O)OC)CCCc2c1[nH]c1cc(Br)ccc21 (stereo not given)	198 °C
Cc1ccc2c(NCc3ccc(NC(=O)C4CCN(Cc5ccccc5)CC4)cc3)nc(N3CCCC3)nc2c1	96 °C
COc1ccc(S(=O)(=O)NC(C)c2cc(F)ccc2-c2ccccc2F)cc1 (stereo not given)	133 to 135 °C
O=C1OC(CCCCN2CCN(c3ccccn3)CC2)CN1c1ccccc1 (stereo not given)	78 to 81 °C
COC(=O)Cn1c(=O)[nH]c(=O)n(-c2cc(Oc3ccc(C(F)(F)F)c(Cl)c3)ccc2[N+](=O)[O-])c1=O	166 to 167 °C
O=C(O)c1ccccc1-c1ccc(C(=O)N2Cc3ccc(C(=O)NCc4cccnc4)n3Cc3ccccc32)cc1	189 to 191 °C
CC(C)(C(CC(=O)c1ccccc1)c1cccnc1)[N+](=O)[O-] (stereo not given)	134 to 135 °C
COc1ccc(-c2cc(C)c(N)c(C=O)c2)cn1	81 to 84 °C
CN1CCCC1COc1ccc(-c2cccc(N)n2)c2ccccc12 (stereo not given)	80 to 95 °C
COC(=O)c1cnn2c(C(F)(F)F)cc(Cl)nc12	126 to 127 °C

###

List of melting point values.

compound	melting point
O=C(Nc1ccc(Br)cc1)N1CCN2CCC1CC2	228 to 231 °C
O=C1N=CC(OCC2CC2)(C(F)(F)F)c2cc(Cl)ccc2N1 (stereo not given)	185 to 186 °C
FC(F)(F)c1cc(Br)c2nc(C(F)(F)F)[nH]c2c1	127 to 130 °C
Cc1nc(-n2cc(C(F)(F)F)ccc2=O)sc1C(=O)NCc1ccccc1	148 to 149 °C
Cc1cc(-n2cnnn2)cc2ccoc12	118 °C
CC1CCC(N(CC2CCC(CN(C(=O)Nc3ccc(N4CCCC4)cc3)C3CCC(C)CC3)CC2)C(=O)Nc2ccc(N3CCCC3)cc2)CC1 (stereo not given)	149 to 155 °C
COC(=O)c1c(N)cc(Cl)c(Cl)c1Cl	123 to 124 °C
O=[N+]([O-])c1c(C(F)(F)F)cc(OCc2ccccc2)cc1C(F)(F)F	141 to 143 °C
CS(=O)(=O)CC(=O)c1ccc(NS(C)(=O)=O)c(Oc2ccc(F)cc2F)c1	162 to 163 °C
Clc1cc2c(cc1Br)C(=C1CCNCC1)c1ncccc1CO2	198 to 199 °C
C/C=C/CC(=O)N[C@H]1CC[C@H](CCN2CCN(c3nccc4c3CCO4)CC2)CC1	176 °C
NC1CCc2ccccc2N(CC(=O)O)C1=O (stereo not given)	147 to 150 °C
CS(=O)(=O)c1ccc(-c2cc(C(CCCO[N+](=O)[O-])=NO)nn2-c2ccccc2)cc1	128 to 130 °C
COCCNc1ncc(-c2cnc3[nH]c(=O)n(CC4CCCCC4)c3n2)cn1	> 250 °C
COC(=O)Oc1sc(-c2ccc(F)cc2)nc(=O)c1-c1c(C)cc(C)cc1C	129 to 131 °C
O=C(Nc1ccc2ccc(-c3cccc(F)c3)nc2n1)c1cccc(Br)c1	208 °C
COc1ccc2oc(C(=O)c3cccnc3N3CCOCC3)cc2c1	85 to 88 °C
COC(=O)Nc1cn2cc(Sc3ccccc3)ccc2n1	247 to 249 °C
CCCCc1nc2c(N)nc3ccccc3c2n1CCCC(C)=NOC	157 to 159 °C
CCCCCCOc1ccc2c(CBr)c(OCCCCCC)ccc2c1CBr	110 to 112 °C

All values here come from a melting point compilation (Tetko et al.; mined from patent text by program, amines drawn as free bases though some values may be those of a salt).
